The entries below come with measured IC50 values attached.
study target: hA2a (Homo sapiens (Human), UniProt P29274)
Sequence (P29274 whole entry): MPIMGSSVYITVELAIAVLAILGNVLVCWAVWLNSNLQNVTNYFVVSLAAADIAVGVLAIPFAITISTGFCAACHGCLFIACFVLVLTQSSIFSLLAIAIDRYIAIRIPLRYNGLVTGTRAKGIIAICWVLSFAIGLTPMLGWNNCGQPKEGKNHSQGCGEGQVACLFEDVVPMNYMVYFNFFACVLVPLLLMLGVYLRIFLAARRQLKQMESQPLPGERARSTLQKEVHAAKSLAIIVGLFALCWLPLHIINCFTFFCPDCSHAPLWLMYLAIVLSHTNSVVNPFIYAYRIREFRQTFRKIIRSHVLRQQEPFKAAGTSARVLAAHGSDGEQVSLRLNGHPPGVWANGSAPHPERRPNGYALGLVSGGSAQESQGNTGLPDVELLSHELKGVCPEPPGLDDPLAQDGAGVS
protocol details: cAMP inhibition assay in hA2a/CHO cells
Type: cell-based
condition notes: adenosine stimulation, read-out: cAMP & FLIPR IC50 (nM) hA2a
Numeric only. Scale: nM

>>> measured_result("CN1CCC[C@@H]1Cc1nc2c(-c3ccc4ncn(C)c4c3)c(-c3ccc(F)cc3)nc(N)n2n1")
1

Give a short answer stating reported IC50 for Cc1cc(-c2c(-c3ccc(F)cc3)nc(N)n3nc(Cc4cccc(Cl)n4)nc23)ccn1 .
46

Give a short answer stating reported IC50 for Cc1cnc2ccc(-c3c(N4CCN(C)CC4)nc(N)n4nc(Cc5c(F)cccc5F)nc34)cn12 .
42.3

Give a short answer stating reported IC50 for Cc1cnc2ccc(-c3c(-c4ccc(F)cc4)nc(N)n4nc(CC5CCOC5)nc34)cn12 (single isomer, unassigned; isomer 1) .
0.1

* * *

study target: hA2b (Homo sapiens (Human), UniProt P29275)
Sequence (P29275 whole entry): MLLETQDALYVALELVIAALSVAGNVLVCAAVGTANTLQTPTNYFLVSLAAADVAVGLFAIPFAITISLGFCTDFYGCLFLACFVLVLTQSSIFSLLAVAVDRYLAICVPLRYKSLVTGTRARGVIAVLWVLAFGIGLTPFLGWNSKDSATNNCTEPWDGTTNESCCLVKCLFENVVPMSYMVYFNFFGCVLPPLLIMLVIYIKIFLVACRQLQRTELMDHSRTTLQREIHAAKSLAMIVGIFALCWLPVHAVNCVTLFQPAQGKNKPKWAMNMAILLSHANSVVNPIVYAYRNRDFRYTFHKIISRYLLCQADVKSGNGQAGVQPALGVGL
protocol details: cAMP inhibition assay in hA2b/CHO cells
Format: cell-based
condition notes: adenosine stimulation, read-out: cAMP & FLIPR IC50 (nM) hA2b
Decision: IC50 beneath 400 nM gives t; IC50 meeting or exceeding 400 nM gives f.

Examples with answers:
>>> assigned_class("Cn1cc(-c2c(-c3ccc(F)cc3F)nc(N)n3nc(Cc4ncccc4F)nc23)ccc1=O")
"f"
>>> assigned_class("Cc1cnc2ccc(-c3c(-c4ncco4)nc(N)n4nc(CC5CCOC5)nc34)cn12 (single isomer, unassigned) [Example 107-1]")
"f"
>>> assigned_class("Nc1nc(-c2ccc(F)cc2)c(-c2ccc3nc[nH]c3c2)c2nc(Cc3ncccc3F)nn12")
"t"
>>> assigned_class("CC(C)n1cc(-c2c(-c3ncco3)nc(N)n3nc(Cc4ncccc4F)nc23)ccc1=O")
"t"

Please state whether IC50 is below 400 nM for Cc1cnc2ccc(-c3c(N4CCC5(COC5)C4)nc(N)n4nc(Cc5ncccc5F)nc34)cn12
f

Please state whether IC50 is below 400 nM for Cn1cc(-c2nc(N)n3nc(Cc4ncccc4F)nc3c2-c2ccc(=O)n(C)c2)cn1
f

Please state whether IC50 is below 400 nM for Nc1nc(-n2nccn2)c(-c2ccc3nccn3c2)c2nc(Cc3ncccc3F)nn12
t

* * *

study target: hA2a (Homo sapiens (Human), UniProt P29274)
protocol details: cAMP inhibition assay in hA2a/CHO cells
Assay type: cell-based
condition notes: adenosine stimulation, read-out: cAMP & FLIPR IC50 (nM) hA2a
Decision: IC50 beneath 4 nM gives criterion met; IC50 meeting or exceeding 4 nM gives criterion not met.

Please state whether IC50 is below 4 nM for CN(C)c1cc(-c2c(-c3ccc(F)cc3)nc(N)n3nc(Cc4c(F)cccc4F)nc23)ccn1
criterion met

Please state whether IC50 is below 4 nM for Nc1nc(-c2ncco2)c(-c2ccnc(OC(F)F)c2)c2nc(Cc3ncccc3F)nn12
criterion not met

Please state whether IC50 is below 4 nM for Cc1cnc2ccc(-c3c(-n4ccc(F)n4)nc(N)n4nc(Cc5ncccc5F)nc34)cn12
criterion met

Please state whether IC50 is below 4 nM for CNc1cc(-c2c(-c3ccc(F)cc3)nc(N)n3nc(Cc4ncccc4F)nc23)ccn1
criterion not met

Please state whether IC50 is below 4 nM for Nc1nc(-c2ccc(F)cc2)c(-c2ccc3nccnc3c2)c2nc(Cc3ncccc3F)nn12
criterion not met

Please state whether IC50 is below 4 nM for Cc1cnc2ccc(-c3c(-c4ncco4)nc(N)n4nc(Cc5ncccc5F)nc34)cn12
criterion met

Please state whether IC50 is below 4 nM for Cc1cnc2ccc(-c3c(N4CCCC4)nc(N)n4nc(Cc5c(F)cccc5F)nc34)cn12
criterion met

Please state whether IC50 is below 4 nM for Cn1cc(-c2c(-c3ccc(F)cc3)nc(N)n3nc(Cc4ncccc4OC(F)F)nc23)ccc1=O
criterion met

* * *

study target: hA2b (Homo sapiens (Human))
protocol details: cAMP inhibition assay in hA2b/CHO cells
Format: cell-based
condition notes: adenosine stimulation, read-out: cAMP & FLIPR IC50 (nM) hA2b
# thresholds on IC50 define classes: 0 = under 60 nM, 1 = from 60 nM up to 200 nM, 2 = 200 nM and over

Examples with answers:
>>> assigned_class("Cc1cc(-c2c(-c3ccc(F)cc3)nc(N)n3nc(Cc4ncccc4F)nc23)cc(C)n1")
2
>>> assigned_class("Nc1nc(-c2ccc(F)cc2)c(-c2ccc(=O)n(CCO)c2)c2nc(Cc3ncccc3F)nn12")
2
>>> assigned_class("Nc1nc(-c2ccc(F)cc2)c(-c2ccc(=O)n(CCO)c2)c2nc(Cc3c(F)cccc3F)nn12")
0
>>> assigned_class("CCn1cc(-c2c(-c3ccc(F)cc3)nc(N)n3nc(Cc4ncccc4F)nc23)ccc1=O")
0

Lab note: which band did Cn1cc(-c2c(-c3ccc(C(F)(F)F)cc3)nc(N)n3nc(Cc4ncccc4F)nc23)ccc1=O land in?
2

Lab note: which band did Cc1nccc(-c2c(-c3ccc(F)cc3)nc(N)n3nc(Cc4c(F)cccc4F)nc23)c1C land in?
1

Lab note: which band did Nc1nc(-c2ccc(F)cc2)c(-c2ccc3ncsc3c2)c2nc(Cc3ncccc3F)nn12 land in?
0

Lab note: which band did Cn1cc(-c2c(-c3ccc(F)cc3)nc(N)n3nc(Cc4ncccc4F)nc23)ccc1=O land in?
1

Lab note: which band did Cc1cnc(-c2nc(N)n3nc(Cc4c(F)cccc4F)nc3c2-c2ccc(=O)n(C)c2)o1 land in?
2

Lab note: which band did COc1cccc(-c2nc(N)n3nc(Cc4ncccc4F)nc3c2-c2ccc(=O)n(C)c2)c1 land in?
0

Lab note: which band did Cn1cc(-c2c(-c3ccc(Cl)cc3)nc(N)n3nc(Cc4ncccc4F)nc23)ccc1=O land in?
1

* * *

study target: mA2a (Mus musculus (Mouse))
Sequence (Q60613 whole entry): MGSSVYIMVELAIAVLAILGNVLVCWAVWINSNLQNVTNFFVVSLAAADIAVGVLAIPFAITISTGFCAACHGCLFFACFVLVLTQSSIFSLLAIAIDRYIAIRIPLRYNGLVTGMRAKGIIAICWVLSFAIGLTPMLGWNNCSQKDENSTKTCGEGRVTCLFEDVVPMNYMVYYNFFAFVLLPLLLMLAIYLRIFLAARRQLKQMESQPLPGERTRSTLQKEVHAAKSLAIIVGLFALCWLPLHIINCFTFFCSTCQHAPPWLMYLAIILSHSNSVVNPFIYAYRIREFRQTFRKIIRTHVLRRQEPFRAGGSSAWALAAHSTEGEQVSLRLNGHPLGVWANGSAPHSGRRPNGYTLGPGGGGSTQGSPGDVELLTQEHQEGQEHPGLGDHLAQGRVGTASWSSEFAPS
protocol details: cAMP inhibition assay in mA2a/CHO cells
Format: cell-based
condition notes: adenosine stimulation, read-out: cAMP & FLIPR IC50 (nM) mA2a
Decision: IC50 beneath 20 nM gives T; IC50 meeting or exceeding 20 nM gives F.

Examples with answers:
>>> assigned_class("Cc1cnc2ccc(-c3c(-c4ncco4)nc(N)n4nc(CC5CCOC5)nc34)cn12 (single isomer, unassigned) [Example 107-2]")
"F"
>>> assigned_class("Cn1cc(-c2c(Cl)nc(N)n3nc(Cc4c(F)cccc4F)nc23)ccc1=O [Example 28]")
"F"
>>> assigned_class("Cc1cc(-c2c(-c3ccc(F)cc3)nc(N)n3nc(Cc4c(F)cccc4F)nc23)c(C)cn1 [Example 13]")
"F"
>>> assigned_class("Cc1cc(-c2c(-c3ncco3)nc(N)n3nc(Cc4ncccc4F)nc23)cc(OC(F)F)n1 [Example 87]")
"F"
>>> assigned_class("Cn1cc(-c2c(-c3ccc(F)cc3)nc(N)n3nc(Cc4cscn4)nc23)ccc1=O [Example 58]")
"F"

Please state whether IC50 is below 20 nM for Cc1cnc2ccc(-c3c(-c4ccc(F)cc4)nc(N)n4nc(CCN(C)C)nc34)cn12 [Example 120]
T

Please state whether IC50 is below 20 nM for Cc1cnc(-c2nc(N)n3nc(Cc4c(F)cccc4F)nc3c2-c2ccc(=O)n(C)c2)o1 [Example 26]
F

Please state whether IC50 is below 20 nM for Cn1cc(-c2c(-c3ccc(F)cc3)nc(N)n3nc(Cc4ncc(F)cc4F)nc23)ccc1=O [Example 67]
F

Please state whether IC50 is below 20 nM for Cn1cc(-c2nc(N)n3nc(Cc4ncccc4F)nc3c2-c2ccc(=O)n(C)c2)cn1 [Example 59]
F

Please state whether IC50 is below 20 nM for Nc1nc(-c2ccc(F)cc2)c(-c2ccc3nccn3c2)c2nc(Cc3ncccc3F)nn12 [Example 32]
T

Please state whether IC50 is below 20 nM for CN(C)c1cc(-c2c(-c3ccc(F)cc3)nc(N)n3nc(Cc4c(F)cccc4F)nc23)ccn1 [Example 10]
T

Please state whether IC50 is below 20 nM for Cc1cc(-c2c(-c3ncco3)nc(N)n3nc(Cc4c(F)cccc4F)nc23)cc(C#N)n1 [Example 83]
F

Please state whether IC50 is below 20 nM for Cn1cc(-c2c(-c3ccc(C(F)(F)F)cc3)nc(N)n3nc(Cc4ncccc4F)nc23)ccc1=O [Example 62]
F

Please state whether IC50 is below 20 nM for Nc1cc(-c2c(-c3ccc(F)cc3)nc(N)n3nc(Cc4ncccc4F)nc23)ccn1 [Example 38]
F

Please state whether IC50 is below 20 nM for Cn1cc(-c2c(-c3cccc(Cl)c3)nc(N)n3nc(Cc4ncccc4F)nc23)ccc1=O [Example 70]
T

Please state whether IC50 is below 20 nM for Cc1cnc2ccc(-c3c(N4CCOCC4)nc(N)n4nc(Cc5ncccc5F)nc34)cn12 [Example 102]
T

Please state whether IC50 is below 20 nM for Cc1cnc2ccc(-c3c(N4CCC4)nc(N)n4nc(Cc5c(F)cccc5F)nc34)cn12 [Example 124]
T
